Where these numbers come from: the supplement of paper PMC6555819

- Test system: PPARg:RXRa IVT, anti-PPARg (NR concentration 270 nM, RXRa partner concentration 90 nM)
- test_description: PBM binding z-score (relative to random genomic background probes); higher = stronger binding; sequences stand for … in GC…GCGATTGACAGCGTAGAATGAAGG
readout_label: PBM binding z-score
Respond numerically, and do not add a unit to the figure.

*Q* Entry under review: `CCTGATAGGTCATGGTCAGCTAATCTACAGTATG` . Reported PBM binding z-score?
*A* 2.99

*Q* Entry under review: `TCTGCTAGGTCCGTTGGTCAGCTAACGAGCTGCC` . Reported PBM binding z-score?
*A* -0.053

*Q* Entry under review: `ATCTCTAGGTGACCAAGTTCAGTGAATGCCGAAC` . Reported PBM binding z-score?
*A* 4.76

*Q* Entry under review: `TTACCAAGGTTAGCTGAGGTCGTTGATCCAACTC` . Reported PBM binding z-score?
*A* 0.594

*Q* Entry under review: `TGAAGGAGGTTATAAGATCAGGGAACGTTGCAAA` . Reported PBM binding z-score?
*A* 0.876

*Q* Entry under review: `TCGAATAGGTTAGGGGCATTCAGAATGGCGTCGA` . Reported PBM binding z-score?
*A* 0.68

*Q* Entry under review: `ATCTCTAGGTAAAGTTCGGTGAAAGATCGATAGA` . Reported PBM binding z-score?
*A* 2.15

*Q* Entry under review: `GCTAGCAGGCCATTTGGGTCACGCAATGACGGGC` . Reported PBM binding z-score?
*A* 3.05

*Q* Entry under review: `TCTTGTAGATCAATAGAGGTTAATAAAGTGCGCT` . Reported PBM binding z-score?
*A* 1.13

###

- Test system: PPARg DBDmut IVT, anti-PPARg (DBD mutation: PPARg1 K132A/R137A, NR concentration 270 nM)
- test_description: PBM binding z-score (relative to random genomic background probes); higher = stronger binding; sequences stand for … in GC…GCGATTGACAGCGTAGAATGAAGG
Classify by measured PBM binding z-score: 1.0 if it is equal to or exceeds 0.2, 0.0 if it is smaller.

item_sequence=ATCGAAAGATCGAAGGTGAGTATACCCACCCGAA answer_label=0.0

*Q* Has `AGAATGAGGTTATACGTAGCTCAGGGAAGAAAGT` a recorded PBM binding z-score greater than or equal to 0.2?
*A* 1.0

*Q* Has `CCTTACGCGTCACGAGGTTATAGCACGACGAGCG` a recorded PBM binding z-score greater than or equal to 0.2?
*A* 1.0

*Q* Has `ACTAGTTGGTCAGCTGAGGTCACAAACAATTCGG` a recorded PBM binding z-score greater than or equal to 0.2?
*A* 1.0

*Q* Has `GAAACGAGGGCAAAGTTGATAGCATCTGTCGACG` a recorded PBM binding z-score greater than or equal to 0.2?
*A* 0.0

*Q* Has `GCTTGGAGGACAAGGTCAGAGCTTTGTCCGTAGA` a recorded PBM binding z-score greater than or equal to 0.2?
*A* 0.0

###

- Test system: RXRa DBDmut IVT, anti-RXR (DBD mutation: RXRa K156A/R161A, NR concentration 90 nM)
- test_description: PBM binding z-score (relative to random genomic background probes); higher = stronger binding; sequences stand for … in GC…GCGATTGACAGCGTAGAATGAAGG
Category key, based on recorded PBM binding z-score: category 1: < 0.5; category 2: ≥ 0.5 and < 1; category 3: ≥ 1

Study these solved cases before continuing.
item_sequence=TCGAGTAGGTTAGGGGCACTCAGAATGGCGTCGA subject_of_test="RXRa DBDmut IVT, anti-RXR (DBD mutation: RXRa K156A/R161A, NR concentration 90 nM)" answer_label="category 1"
item_sequence=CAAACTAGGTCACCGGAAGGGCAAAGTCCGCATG subject_of_test="RXRa DBDmut IVT, anti-RXR (DBD mutation: RXRa K156A/R161A, NR concentration 90 nM)" answer_label="category 3"
item_sequence=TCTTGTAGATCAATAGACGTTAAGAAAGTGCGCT subject_of_test="RXRa DBDmut IVT, anti-RXR (DBD mutation: RXRa K156A/R161A, NR concentration 90 nM)" answer_label="category 2"
item_sequence=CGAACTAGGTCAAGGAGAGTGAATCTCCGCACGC subject_of_test="RXRa DBDmut IVT, anti-RXR (DBD mutation: RXRa K156A/R161A, NR concentration 90 nM)" answer_label="category 3"
item_sequence=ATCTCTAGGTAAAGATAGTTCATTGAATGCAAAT subject_of_test="RXRa DBDmut IVT, anti-RXR (DBD mutation: RXRa K156A/R161A, NR concentration 90 nM)" answer_label="category 1"

*Q* Record `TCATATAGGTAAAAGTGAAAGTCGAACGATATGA` — which class?
*A* category 2

*Q* Record `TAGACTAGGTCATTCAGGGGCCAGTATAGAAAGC` — which class?
*A* category 3

*Q* Record `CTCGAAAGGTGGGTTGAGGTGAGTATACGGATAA` — which class?
*A* category 1

*Q* Record `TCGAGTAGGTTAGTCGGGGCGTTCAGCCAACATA` — which class?
*A* category 1

*Q* Record `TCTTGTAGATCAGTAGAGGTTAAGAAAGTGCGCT` — which class?
*A* category 2

*Q* Record `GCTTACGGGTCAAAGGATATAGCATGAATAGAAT` — which class?
*A* category 3

*Q* Record `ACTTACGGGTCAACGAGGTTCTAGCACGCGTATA` — which class?
*A* category 3

###

- System: PPARg:RXRa 90nM:30nM, anti-RXR (NR concentration 90 nM, RXRa partner concentration 30 nM)
- test_description: PBM binding z-score (relative to random genomic background probes); higher = stronger binding; sequences stand for … in GC…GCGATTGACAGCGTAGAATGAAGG
Documented PBM binding z-score across a set of sequences
Respond numerically, and do not add a unit to the figure.

Study these solved cases before continuing.
item_sequence=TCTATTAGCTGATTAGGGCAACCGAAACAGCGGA measured_number=2.13
item_sequence=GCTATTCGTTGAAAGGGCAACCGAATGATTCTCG measured_number=2.16
item_sequence=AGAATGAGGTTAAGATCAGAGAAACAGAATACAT measured_number=1.71
item_sequence=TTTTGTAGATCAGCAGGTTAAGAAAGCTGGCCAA measured_number=0.797
item_sequence=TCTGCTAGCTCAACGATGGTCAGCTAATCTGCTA measured_number=0.838

*Q* Entry under review: `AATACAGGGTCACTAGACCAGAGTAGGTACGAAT` . Reported PBM binding z-score?
*A* 4.31

*Q* Entry under review: `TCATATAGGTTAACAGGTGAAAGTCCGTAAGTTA` . Reported PBM binding z-score?
*A* 4.91

*Q* Entry under review: `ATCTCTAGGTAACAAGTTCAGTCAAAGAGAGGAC` . Reported PBM binding z-score?
*A* 1.85

*Q* Entry under review: `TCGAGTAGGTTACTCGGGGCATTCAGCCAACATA` . Reported PBM binding z-score?
*A* 0.94

*Q* Entry under review: `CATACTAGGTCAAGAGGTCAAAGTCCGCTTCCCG` . Reported PBM binding z-score?
*A* 7.65

*Q* Entry under review: `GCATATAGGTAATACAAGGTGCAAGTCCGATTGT` . Reported PBM binding z-score?
*A* 0.648

*Q* Entry under review: `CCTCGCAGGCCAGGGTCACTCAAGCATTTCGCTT` . Reported PBM binding z-score?
*A* 0.0823

*Q* Entry under review: `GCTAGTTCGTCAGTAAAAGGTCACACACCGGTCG` . Reported PBM binding z-score?
*A* 3.22

*Q* Entry under review: `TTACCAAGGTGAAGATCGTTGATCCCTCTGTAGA` . Reported PBM binding z-score?
*A* 0.575

*Q* Entry under review: `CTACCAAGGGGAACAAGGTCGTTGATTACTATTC` . Reported PBM binding z-score?
*A* 0.258

*Q* Entry under review: `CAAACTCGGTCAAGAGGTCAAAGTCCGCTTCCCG` . Reported PBM binding z-score?
*A* 5.47

*Q* Entry under review: `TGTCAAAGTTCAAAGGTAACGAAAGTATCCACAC` . Reported PBM binding z-score?
*A* 7.45

*Q* Entry under review: `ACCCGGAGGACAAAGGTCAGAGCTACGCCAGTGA` . Reported PBM binding z-score?
*A* 5.95

*Q* Entry under review: `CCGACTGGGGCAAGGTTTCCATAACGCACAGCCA` . Reported PBM binding z-score?
*A* 1.97

*Q* Entry under review: `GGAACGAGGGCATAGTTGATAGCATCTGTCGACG` . Reported PBM binding z-score?
*A* 4.54

*Q* Entry under review: `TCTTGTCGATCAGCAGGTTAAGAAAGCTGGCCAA` . Reported PBM binding z-score?
*A* 1.91

*Q* Entry under review: `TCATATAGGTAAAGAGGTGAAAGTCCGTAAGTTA` . Reported PBM binding z-score?
*A* 5

*Q* Entry under review: `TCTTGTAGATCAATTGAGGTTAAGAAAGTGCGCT` . Reported PBM binding z-score?
*A* 2.2

*Q* Entry under review: `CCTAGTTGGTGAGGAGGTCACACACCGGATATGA` . Reported PBM binding z-score?
*A* 2.31

*Q* Entry under review: `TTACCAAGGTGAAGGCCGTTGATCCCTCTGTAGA` . Reported PBM binding z-score?
*A* 0.916

*Q* Entry under review: `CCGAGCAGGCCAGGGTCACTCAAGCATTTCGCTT` . Reported PBM binding z-score?
*A* 0.482
